- Tested on: AKT2
- condition_info: concentration: 1 μM, replicates: in singlicate; n = 1;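 note: KINOMEscan kinase panel screen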

compound: CCCNC(=O)Nc1ccc(Oc2ncnc3ccn(C)c23)cc1
%Inh (%): 8
--
compound: C[C@@H]1CC[C@H](C(=O)NC2CCCCC2)CN1c1cc(-c2ccc3c(N)n[nH]c3c2)nc(N)n1 [GSK2291363]
%Inh (%): 11
--
compound: COc1cc2nccc(Nc3ccc(OCc4ccc(NC(C)=O)cc4)cc3)c2cc1OC.Cl [GW440135]
%Inh (%): 0
--
compound: CCC(=O)c1c(-c2ccccc2)c2cc(Cl)ccc2c(=O)n1Cc1cc(S(C)(=O)=O)n(CCC(C)(C)O)n1
%Inh (%): 14
--
compound: O=C(Nc1n[nH]c2cc(-c3ccccc3F)ccc12)C1CC1 [SB-733371]
%Inh (%): 0
--
compound: CC(C)(C)c1ccc(C(=O)Nc2cn3cc(-c4ccccc4)ccc3n2)cc1
%Inh (%): 0
--
compound: COC(=O)c1c(-c2ccccc2)c2cc(Br)ccc2c(=O)n1Cc1ccc(NC(=O)CCC(=O)O)cc1
%Inh (%): 11
--
compound: COC(=O)c1c(-c2ccccc2)c2cc(C)ccc2c(=O)n1Cc1ccccc1
%Inh (%): 3
--
compound: COc1ccc(CNC(=O)NC2CCN(c3ccnc(Nc4ccc(F)cc4)n3)C2)cc1 (stereo not drawn) [GSK1379706]
%Inh (%): 0

----------
Entries and their measured %Inh follow.
- Tested on: ACVRL1
- condition_info: concentration: 1 μM, replicates: in singlicate; n = 1
measurement_type: %Inh (%)

mol_smiles: Nc1n[nH]c2ncc(-c3ccccc3)cc12
recorded_number: 0
//
mol_smiles: Nc1nc(N)c2nc(-c3ccccc3)[nH]c2n1
recorded_number: 3
//
mol_smiles: O=C(NCc1cccs1)c1cc(C(=O)c2c(Cl)cccc2Cl)c[nH]1
recorded_number: 5
//
mol_smiles: Cc1cccc(-c2nc(Nc3ccc4c(cnn4C)c3)c3ccccc3n2)n1
recorded_number: 0
//
mol_smiles: O=C(Nc1ccc2c(c1)OCO2)NC1CCN(c2ccnc(NCc3ccc(F)cc3)n2)CC1
recorded_number: 0
//
mol_smiles: COc1cc2ncn(-c3cc(OCc4ccncc4)c(C(N)=O)s3)c2cc1OC
recorded_number: 0
//
mol_smiles: C[C@@H]1CC[C@H](C(=O)NC2CCCCC2)CN1c1cc(-c2ccc3c(N)n[nH]c3c2)nc(N)n1
recorded_number: 0
//
mol_smiles: Cc1nc(N(C)[C@H]2CN(C(=O)CC#N)CC[C@H]2C)c2cc[nH]c2n1
recorded_number: 5
//
mol_smiles: COc1cc(OC)cc(-c2cc3cnc(N)nc3nc2NC(=O)NC(C)(C)C)c1
recorded_number: 0

----------
Entries and their measured %Inh follow.
- Test system: PIK3CG
- condition_info: concentration: 1 μM, replicates: in singlicate; n = 1
measurement_type: %Inh (%)

compound: Nc1n[nH]c2ncc(-c3ccccc3)cc12
recorded_number: 0
--
compound: Nc1ncnc2c1ncn2-c1cccc(F)c1
recorded_number: 14
--
compound: Nc1nccc2scc(-c3ccc4c(c3)CCN4C(=O)Cc3ccccc3)c12
recorded_number: 5
--
compound: Cc1cccc(-c2cc(-c3c[nH]nc3-c3ccccn3)ccn2)c1
recorded_number: 0
--
compound: COc1cc(Nc2ccnc3ccc(C(F)(F)F)cc23)cc(OC)c1OC
recorded_number: 0
--
compound: CCC(=O)c1c(-c2ccccc2)c2cc(Cl)ccc2c(=O)n1Cc1cc(S(C)(=O)=O)n(CC(N)=O)n1
recorded_number: 0
--
compound: Cn1c(=O)c(F)c(Nc2ccc(I)cc2F)c2c(=O)n(OC[C@H](O)CO)cnc21
recorded_number: 0
--
compound: Cl.c1ccc(Cn2cnc3cc(Nc4ncnc5ccccc45)ccc32)cc1
recorded_number: 0
--
compound: COc1ccc(CNC(=O)NC2CCN(c3ccnc(Nc4ccc(F)cc4)n3)C2)cc1 (stereo not shown)
recorded_number: 7
--
compound: COc1ccc(-c2cc3c(C)nc(N)nc3n([C@H]3CC[C@H](O)CC3)c2=O)cn1
recorded_number: 100
--
compound: COc1cc(Nc2nccc(N3CCC(NC(=O)C4COc5ccccc5O4)C3)n2)cc(OC)c1OC (stereo not shown)
recorded_number: 0
--
compound: COc1cccc(C2=C(Nc3cccc(C(=O)O)c3)C(=O)NC2=O)c1
recorded_number: 5
--
compound: COc1cc(OC)cc(-c2cc3cnc(N)nc3nc2NC(=O)NC(C)(C)C)c1
recorded_number: 5
--
compound: Cc1c(Cn2c(C)nn3c(=O)cc(N4CCO[C@H](C)C4)nc23)cccc1C(F)(F)F
recorded_number: 21
--
compound: CCC(=O)c1c(-c2ccccc2)c2cc(Cl)ccc2c(=O)n1Cc1cc(S(C)(=O)=O)n(CC(F)F)n1
recorded_number: 0
--
compound: O=C(NCCNc1ccnc(Nc2ccc(F)cc2)n1)Nc1ccc2c(c1)OCO2
recorded_number: 10
--
compound: COc1cccc(-n2cnc3c(N)ncnc32)c1
recorded_number: 44
--
compound: Cc1nnc(-c2ccc3ncn(-c4ccc(S(C)=O)cc4)c3c2)o1 (stereo not shown)
recorded_number: 0
--
compound: CN1C(=O)C(Nc2cc(Cl)c(O)c(Cl)c2)=C(c2ccc(Cl)cc2)C1=O
recorded_number: 10
--
compound: Cc1cc(Nc2nc(-c3cccc(C)n3)nc3ccccc23)ccn1
recorded_number: 0
--
compound: O=C(Nc1ccc2c(c1)OCO2)NC1CCN(c2ccnc(NCc3ccc(F)cc3)n2)CC1
recorded_number: 0
--
compound: CCS(=O)c1ccc(-c2coc3ccc(-c4nnc(C)o4)cc23)cc1 (stereo not shown)
recorded_number: 0
--
compound: Cc1nnc(-c2ccc(C)c(-c3ccc(C(=O)O)cc3)c2)o1
recorded_number: 0
--
compound: O=C(Nc1n[nH]c2cc(-c3ccccc3F)ccc12)C1CC1
recorded_number: 6
--
compound: CCC(=O)c1c(-c2ccccc2)c2cc(Cl)ccc2c(=O)n1Cc1cc(C(=O)NC2CC2)n(C)n1
recorded_number: 0
--
compound: COc1cc2nccc(Nc3cccc(Oc4ccccc4)c3)c2cc1OC.Cl
recorded_number: 0
--
compound: O=C(Nc1n[nH]c2nc(-c3ccccc3)c(Br)cc12)C1CC1
recorded_number: 0
--
compound: CN(C)c1cc(-c2ccc3c(N)n[nH]c3c2)nc(N)n1
recorded_number: 0
